So I've got a bunch of sequences here, and I need their furin cleavage Z-score values.
- target_desc: furin, P09958;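 further: purified furin at 1:10 enzyme:substrate in 50 mM HEPES pH 7.5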
- Sequence (P09958 whole entry): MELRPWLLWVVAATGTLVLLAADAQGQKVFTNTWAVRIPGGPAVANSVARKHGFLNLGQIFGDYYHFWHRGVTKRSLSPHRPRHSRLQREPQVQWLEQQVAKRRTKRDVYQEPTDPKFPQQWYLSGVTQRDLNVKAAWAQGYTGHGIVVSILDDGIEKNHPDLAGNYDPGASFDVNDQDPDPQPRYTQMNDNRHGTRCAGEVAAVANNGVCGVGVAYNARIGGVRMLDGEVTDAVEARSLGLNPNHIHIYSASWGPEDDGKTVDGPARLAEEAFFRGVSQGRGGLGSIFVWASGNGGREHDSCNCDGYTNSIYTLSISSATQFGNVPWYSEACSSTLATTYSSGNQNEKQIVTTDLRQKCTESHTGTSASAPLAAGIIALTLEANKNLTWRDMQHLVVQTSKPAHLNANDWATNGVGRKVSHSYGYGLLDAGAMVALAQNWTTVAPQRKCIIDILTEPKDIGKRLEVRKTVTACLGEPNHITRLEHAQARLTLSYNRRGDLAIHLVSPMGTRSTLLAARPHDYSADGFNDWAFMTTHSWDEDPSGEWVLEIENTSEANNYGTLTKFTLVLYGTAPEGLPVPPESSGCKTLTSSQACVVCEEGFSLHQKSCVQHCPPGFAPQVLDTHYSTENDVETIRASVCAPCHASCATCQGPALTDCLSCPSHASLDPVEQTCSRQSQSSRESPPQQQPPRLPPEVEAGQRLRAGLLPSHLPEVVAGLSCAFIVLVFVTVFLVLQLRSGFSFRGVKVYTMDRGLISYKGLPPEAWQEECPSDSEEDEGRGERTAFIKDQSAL
- assay_procedure: furin cleavage Z-score vs untreated control; higher = more cleavage, active = 3.5 or more, inactive = 1 or less, 8 variable residues between constant flanks
- condition_info: 15 min
The list shows a part of the results. No count for the full screen is at hand.
Answers are plain numbers.

CATYQRHYRNAGNASASA [FS-512]: 0.916
CAEVTTPCSGAGNASASA [HC1970]: -0.206
CAQASRTRRNAGNASASA [FS-621]: 14.2
CARTPRAVRPAGNASASA [FS-2241]: 5.05

Below are some sequences; for each one, tell me its furin cleavage Z-score.
1. CADSSRSVRPAGNASASA [FS-1518]
2. CAQVGDFHYVAGNASASA [HC1208]
3. CARGLDVSVIAGNASASA [HC870]

Reply:
[-0.293, 0.348, -0.274]
